Every entry's value here was drawn from the Kinase Knowledgebase extract (Sharma et al. 2016).

Each entry below carries its measured pKd, system: MAPK14 (UniProt Q16539).
Sequence (Q16539 whole entry, looked up): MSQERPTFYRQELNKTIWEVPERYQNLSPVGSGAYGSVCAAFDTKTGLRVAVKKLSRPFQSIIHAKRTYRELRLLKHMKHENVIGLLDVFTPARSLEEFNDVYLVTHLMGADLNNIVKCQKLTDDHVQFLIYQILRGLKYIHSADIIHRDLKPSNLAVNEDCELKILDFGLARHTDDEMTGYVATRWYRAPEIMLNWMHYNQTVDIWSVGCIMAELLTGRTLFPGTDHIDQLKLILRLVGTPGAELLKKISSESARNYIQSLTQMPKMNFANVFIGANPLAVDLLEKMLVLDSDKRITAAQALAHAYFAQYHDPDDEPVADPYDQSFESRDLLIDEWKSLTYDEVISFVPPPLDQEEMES
pKd: −log10 of the molar value.
test-readout: pKd

As a guide, the following entries are already answered.
                                smiles_text            tested_target  value_reported
0  CC(C)(C)c1cc(NC(=O)Nc2ccc(Cl)cc2)n(-c2ccccc2)n1  MAPK14 (UniProt Q16539)            8.10
1  Cc1cccc(NC(=O)Nc2cc(C(C)(C)C)nn2-c2ccccc2)c1C  MAPK14 (UniProt Q16539)            8.52

(1) Cc1ccccc1-n1nc(C(C)(C)C)cc1NC(=O)Nc1ccccc1
(2) CC(C)(C)c1cc(NC(=O)Nc2ccncc2)n(-c2ccccc2)n1
(3) Cc1ccc(-n2nc(C(C)(C)C)cc2NC(=O)Nc2ccccc2)cc1C
(4) CC(C)(C)c1cc(NC(=O)Nc2ccccc2)n(-c2ccc(N)cc2)n1
(5) CCC(C)(C)c1cc(NC(=O)Nc2ccccc2)n(-c2ccccc2)n1
Query block: Please put the entries in order of rising pKd. Answer format: the labels, in the requested order.
Result block: 2, 1, 5, 4, 3
(2: 5.92, 1: 6.70, 5: 7.92, 4: 8.15, 3: 8.40)

(A) CC(C)(C)c1cc(NC(=O)NC2CCCCC2)n(-c2ccccc2)n1
(B) CC1(c2cc(NC(=O)Nc3ccccc3)n(-c3ccccc3)n2)CCCCC1
(C) Cc1cccc(-n2nc(C(C)(C)C)cc2NC(=O)Nc2ccccc2)c1
Query block: Please list these compounds in decreasing order of pKd. Sort and list the labels as requested.
Result block: C, B, A

(I) CC(C)c1cc(NC(=O)Nc2ccccc2)n(-c2ccccc2)n1
(II) CC(C)(C)c1cc(NC(=O)Nc2cccc3ccccc23)n(-c2ccccc2)n1
Query block: Endpoint returns whichever of I and II has the numerically higher pKd. Selection: enter the item's label.
Result block: II

---

pIC50: −log10 of the molar value.
Please consider the recorded pIC50 for UniProt:P24941 in what follows.
test-readout: pIC50

>>> df
                                smiles_text  test_readout  value_reported
0  CN1CCC(c2c(O)cc(O)c3c2O/C(=C\c2ccccc2Cl)C3=O)CC1         pIC50            5.40

(1) CN1CCC(c2c(O)cc(O)c3c2O/C(=C\c2ccc([N+](=O)[O-])cc2)C3=O)CC1
(2) CN(C)S(=O)(=O)c1ccc(NN=C2C(=O)Nc3ccc(O)cc32)cc1
Query block: // which entry reports the smaller pIC50, 1 or 2 ? API: response body contains the label of the selected item.
Result block: 1

---

Observed pKd for MAPK14 (UniProt Q16539), reported per entry below.
Answer as the number alone; pKd is minus log10 of concentration in mol/L.

                                smiles_text  test_readout  value_reported
0  COc1ccc(-n2nc(C(C)(C)C)cc2NC(=O)Nc2ccccc2)cc1           pKd            7.51

Sample "Cc1ccc(-n2nc(C(C)(C)C)cc2NC(=O)Nc2ccccc2)cc1" , system: MAPK14 (UniProt Q16539). Its pKd is 8.52

Test item "Cc1ccc(-n2nc(C(C)(C)C)cc2NC(=O)Nc2ccccc2F)cc1" ; MAPK14 (UniProt Q16539); reported pKd was 7.85

---

pIC50: −log10 of the molar value.
Values of pIC50 reported for UniProtKB P24941 appear below.

                          smiles_text  value_reported
0          O=C1Nc2ccccc2C1=NNc1ccccc1          < 5.00
1  COc1ccc2c(c1)C(=NNc1ccccc1)C(=O)N2          < 5.00

Here is another compound to look at.
// recorded pIC50 for "O=C1Nc2ccc(Br)cc2C1=NNc1ccccc1" : < 5.00
